Each recorded value in this set is attributed to the supplement of paper PMC5998384.

tested on: HeLa Kyoto; experiment: thermal stability score vs G1/S (z-score of summed log2 fold changes over temperatures); higher = more thermally stable than in G1/S; details: cell cycle stage: mitosis
quantity measured: thermal stability score

Please give the measured thermal stability score for this substance: TRIOBP 1.17

Please give the measured thermal stability score for this substance: MSADAAAGAPLPRLCCLEKGPNGYGFHLHGEKGKLGQYIRLVEPGSPAEKAGLLAGDRLVEVNGENVEKETHQQVVSRIRAALNAVRLLVVDPETDEQLQKLGVQVREELLRAQEAPGQAEPPAAAEVQGAGNENEPREADKSHPEQRELRPRLCTMKKGPSGYGFNLHSDKSKPGQFIRSVDPDSPAEASGLRAQDRIVEVNGVCMEGKQHGDVVSAIRAGGDETKLLVVDRETDEFFKKCRVIPSQEHLNGPLPVPFTNGEIQKENSREALAEAALESPRPALVRSASSDTSEELNSQDSPPKQDSTAPSSTSSSDPILDFNISLAMAKERAHQKRSSKRAPQMDWSKKNELFSNL [SLC9A3R1] -0.944

Please give the measured thermal stability score for this substance: MAVARLAAVAAWVPCRSWGWAAVPFGPHRGLSVLLARIPQRAPRWLPACRQKTSLSFLNRPDLPNLAYKKLKGKSPGIIFIPGYLSYMNGTKALAIEEFCKSLGHACIRFDYSGVGSSDGNSEESTLGKWRKDVLSIIDDLADGPQILVGSSLGGWLMLHAAIARPEKVVALIGVATAADTLVTKFNQLPVELKKEVEMKGVWSMPSKYSEEGVYNVQYSFIKEAEHHCLLHSPIPVNCPIRLLHGMKDDIVPWHTSMQVADRVLSTDVDVILRKHSDHRMREKADIQLLVYTIDDLIDKLSTIVN [ABHD10] -0.803

====

Each entry below lists one item and its recorded thermal stability score value.
tested on: HeLa Kyoto; assay: thermal stability score vs G1/S (z-score of summed log2 fold changes over temperatures); higher = more thermally stable than in G1/S; details: cell cycle stage: mitosis;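 note: synchronized HeLa Kyoto cells, proteins quantified by TMT10plex mass spectrometry, three biological replicates, mitosis taken 0.5 h after nocodazole release, G1/S directly after double thymidine block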
Please give the numeric answer without any surrounding text.

MANNDAVLKRLEQKGAEADQIIEYLKQQVSLLKEKAILQATLREEKKLRVENAKLKKEIEELKQELIQAEIQNGVKQIPFPSGTPLHANSMVSENVIQSTAVTTVSSGTKEQIKGGTGDEKKAKEKIEKKGEKKEKKQQSIAGSADSKPIDVSRLDLRIGCIITARKHPDADSLYVEEVDVGEIAPRTVVSGLVNHVPLEQMQNRMVILLCNLKPAKMRGVLSQAMVMCASSPEKIEILAPPNGSVPGDRITFDAFPGEPDKELNPKKKIWEQIQPDLHTNDECVATYKGVPFEVKGKGVCRAQTMSNSGIK [AIMP1] | 1.24
MPKRKVSSAEGAAKEEPKRRSARLSAKPPAKVEAKPKKAAAKDKSSDKKVQTKGKRGAKGKQAEVANQETKEDLPAENGETKTEESPASDEAGEKEAKSD [HMGN1] | -4.73
MASGQGPGPPRQECGEPALPSASEEQVAQDTEEVFRSYVFYRHQQEQEAEGVAAPADPEMVTLPLQPSSTMGQVGRQLAIIGDDINRRYDSEFQTMLQHLQPTAENAYEYFTKIATSLFESGINWGRVVALLGFGYRLALHVYQHGLTGFLGQVTRFVVDFMLHHCIARWIAQRGGWVAALNLGNGPILNVLVVLGVVLLGQFVVRRFFKS [BAK1] | -0.207
MESSRGRPGPETDLLAVAEHQALVFGGGPGRTSSEPPAGLRVSGEEETENVGGANRHPRTSPKTSSCGVVHRPEREALENEPGPQGTLSGAGSRRGAPGAEHEPSLSSRHKNPAPPEGKPSSGRDCRRGGPGGGMDVEQQEEEDNDEEAAAGSRAGRSFSSRLQDSRSLDGLSEACGGAGSSGSAESGAGGGRRATISSPLELEGTVSRHGDLTHFVANNLQLKIRLSGAPPPPPSAPARPCPAPAPTPTPAIPPIDPEVLRDLERLSRELGGRVDRLLRGLGGAVQELTALSVGCIQTYRDAVDSLGEAVDMSIKGMYTLLARCEELERALQPVQGLARQVRDIRRTLEVLEALCK [C17ORF59] | -1.39
MEHFDASLSTYFKALLGPRDTRVKGWFLLDNYIPTFICSVIYLLIVWLGPKYMRNKQPFSCRGILVVYNLGLTLLSLYMFCELVTGVWEGKYNFFCQGTRTAGESDMKIIRVLWWYYFSKLIEFMDTFFFILRKNNHQITVLHVYHHASMLNIWWFVMNWVPCGHSYFGATLNSFIHVLMYSYYGLSSVPSMRPYLWWKKYITQGQLLQFVLTIIQTSCGVIWPCTFPLGWLYFQIGYMISLIALFTNFYIQTYNKKGASRRKDHLKDHQNGSMAAVNGHTNSFSPLENNVKPRKLRKD [ELOVL5] | -0.967

Please give the measured thermal stability score for this sequence: MPQYQTWEEFSRAAEKLYLADPMKARVVLKYRHSDGNLCVKVTDDLVCLVYKTDQAQDVKKIEKFHSQLMRLMVAKEARNVTMETE [SRP9] -5.71

Please give the measured thermal stability score for this sequence: MADTTPNGPQGAGAVQFMMTNKLDTAMWLSRLFTVYCSALFVLPLLGLHEAASFYQRALLANALTSALRLHQRLPHFQLSRAFLAQALLEDSCHYLLYSLIFVNSYPVTMSIFPVLLFSLLHAATYTKKVLDARGSNSLPLLRSVLDKLSANQQNILKFIACNEIFLMPATVFMLFSGQGSLLQPFIYYRFLTLRYSSRRNPYCRTLFNELRIVVEHIIMKPACPLFVRRLCLQSIAFISRLAPTVP [TMEM33] 2.45
